# assay_comment: Pharmacokinetic study in beagles
# Format: in vivo
# reported_conditions: both, beagle, dog, plasma, po, 30 mg/kg
readout_type: AUC(0-t) (µM·h)
Give a bare numeral; the unit µM·h is implied.

Query: Given the entry COc1cc2nccc(Oc3ccc(NC(=S)NC4CC4)c(Cl)c3F)c2cc1C(N)=O [WXFL-152] , report its measured AUC(0-t).
Reply: 50

###

# assay_comment: Pharmacokinetic study in beagles
# Format: in vivo
# reported_conditions: both, beagle, dog, plasma, po, 30 mg/kg/day
readout_type: Tmax at 7 days (h)
Give a bare numeral; the unit h is implied.

Query: Given the entry "COc1cc2nccc(Oc3ccc(NC(=S)NC4CC4)c(Cl)c3F)c2cc1C(N)=O" , report its measured Tmax at 7 days.
Reply: 1.08

Where do these numbers come from? They come from paper PMC7488503.
